In this section, each of the molecules is paired with its reported IC50.
measured on: UniProt P00533
assay name: In vitro inhibition of EGFR, Flash Plate or glass-fiber filter technology (C2)
Assay type: biochemical
Design: 0.5 μg EGFR-kinase domain/well
experimental conditions: EGFR-kinase domain, 5.0 μM unlabeled ATP, read-out: Kinase activity.(C2): pIC50 (converted)
All answers are understood in nM, so give the number only.

In the examples that follow, each entry is paired with its recorded IC50.
> print(dat)
                                   molecule  test.readout  experimental.result
1  COc1cc2ncnc3c2cc1OCCCCCN(C(=O)OC(C)(C)C)Cc1cc(F)c(Cl)cc1N3 [Compound 29]          IC50                  794
2  COc1cc2ncnc3c2cc1OCCCCCCCCOc1cccc(c1)N3 [Compound 25]          IC50                  631
3  COc1cc2ncnc3c2cc1OCCC=CCCCC(=O)NCc1ccc(Cl)cc1N3 [Compound 108]          IC50                  398
4  COc1cc2ncnc3c2cc1OCCN(C(=O)CN1CCOC(CO)C1)CC(=O)NCCCc1ccc(Cl)cc1N3 (centres unmarked) [Compound 45]          IC50                  158
5  COc1cc2ncnc3c2cc1OCCCC(=O)NC(CO)C(=O)NCc1ccc(Cl)cc1N3 (centres unmarked) [Compound 130]          IC50                 25.1

Could you share which IC50 value was measured for CCN1CCOc2cc3c(ncnc3cc2OC)Nc2cc(Cl)ccc2CCCNC(=O)C1 [Compound 53] ?
200

Moving on to COc1cc2ncnc3c2cc1OCCNCC(=O)NCCCc1ccc(Cl)cc1N3 [Compound 42]
501

* * *

measured on: EGFR (Homo sapiens)
Sequence (P00533 712-979 limits assumed): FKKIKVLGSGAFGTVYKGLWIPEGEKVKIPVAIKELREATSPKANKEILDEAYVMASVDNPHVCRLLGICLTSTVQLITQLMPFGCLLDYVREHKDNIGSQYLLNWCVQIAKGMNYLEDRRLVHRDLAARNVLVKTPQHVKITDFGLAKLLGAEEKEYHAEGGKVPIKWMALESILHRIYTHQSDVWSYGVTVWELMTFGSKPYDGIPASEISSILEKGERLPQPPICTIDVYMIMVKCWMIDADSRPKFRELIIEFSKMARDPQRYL
assay name: In vitro inhibition of EGFR, Flash Plate or glass-fiber filter technology (C2)
Assay type: biochemical
Design: 0.5 μg EGFR-kinase domain/well
experimental conditions: EGFR-kinase domain, 5.0 μM unlabeled ATP, read-out: Kinase activity.(C2): pIC50 (converted)
test readout: IC50
Reply with the number and its unit after it.

The examples below pair each entry with its known result.
> print(dat)
                                   molecule  experimental.result
1  COc1cc2ncnc3c2cc1OCCCCNC(=O)C1CCCN1Cc1ccc(Cl)cc1N3 (stereo not shown)              7.94 nM
2  COc1cc2ncnc3c2cc1OCCCCNC(=O)C1CCCN1Cc1cc(F)c(Cl)cc1N3 (stereo not shown)               200 nM
3  COCCOc1cc2ncnc3c2cc1OCCCCCCOc1ccc(Br)cc1N3              25.1 nM

Next:
What IC50 value was documented for this molecule, `COc1cc2ncnc3c2cc1OCCCNCCN(C)Cc1ccc(Cl)cc1N3` ?
10 nM

* * *

test readout: melting point

> print(dat)
                                   compound   test.readout  experimental.result
1  COc1cc2ncnc3c2cc1OCCCCCCOc1ccccc1N3 [Compound 5]  melting point    243.3 to 251.2 °C

So what's the measured melting point for this one? COc1cc2ncnc3c2cc1OCCCCCCCCCOc1ccc(Cl)cc1N3 [Compound 9]
177.4 to 183.8 °C

Quick one: COc1cc2ncnc3c2cc1OCCCNC(=O)C1CCC(=O)N1Cc1ccc(Cl)cc1N3 (centres unmarked) [Compound 76]
350.5 to 352.5 °C

Same question, COc1cc2ncnc3c2cc1OCCCCCCCOc1ccc(Cl)cc1N3 [Compound 7] this time
240.6 to 243.7 °C

// same read-out, input: COc1cc2ncnc3c2cc1OCCNC(=O)CCNCc1ccc(Cl)cc1N3 [Compound 75]
254.4 to 256.5 °C

Cool, now COc1cc2ncnc3c2cc1OCCCNC(=O)CNCc1ccc(Cl)cc1N3 [Compound 99]
304.6 to 304.8 °C

Follow-up item: COc1cc2ncnc3c2cc1OCCCNCCN(C)Cc1ccc(Cl)cc1N3 [Compound 114]
202.8 to 203.6 °C
